Test system: U-251
Assay: NCI tumour cell line growth inhibition, 48 h
Calls of active or inactive are those of the source. Rule as the data show it: active = GI50 up to about 1.1 µM and inactive = higher.
quantity_measured: GI50

Worked examples follow.
compound=COc1cc(S(=O)(=O)Nc2nc(-c3ccc(N4C(=O)/C(=C\c5cccs5)N=C4c4ccccc4)cc3)cs2)ccc1Cl quantity_measured=GI50 result="45.4 µM (inactive)"
compound="OCC1OC(n2ccc3cnccc32)CC1O (stereo unspecified)" quantity_measured=GI50 result="> 100 µM (inactive)"
compound="CC1CNC(c2ccc(CN3CCC(CCCC4CCN(Cc5ccc(C6=NC(C)CN6)cc5)CC4)CC3)cc2)=N1 (stereo unspecified)" quantity_measured=GI50 result="35 µM (inactive)"

Query block: What GI50 value was documented for this compound, COc1ccc(C(=O)C(c2ccc(OC)cc2)C2(O)C(=O)Nc3c(C)cc(Cl)cc32)cc1 (stereo unspecified) ?
Result block: 45.2 µM (inactive)

Query block: Which measured GI50 value corresponds to COC(=O)C1(Cc2ccccc2C)Cc2ccc(C)cc2C1=O (stereo unspecified) ?
Result block: 39 µM (inactive)

Query block: Which GI50 value is on record for Cc1nc2cc(F)c(F)cc2[nH]c1=O ?
Result block: > 100 µM (inactive)

Query block: Which GI50 reading was recorded for the compound FC(F)(F)C(C1=NC(C(F)(F)F)(C(F)(F)F)N=C(N2CCOCC2)O1)C(F)(F)F ?
Result block: 19.9 µM (inactive)

Query block: Recorded GI50 of COc1cccc2nc3c(C(=O)NCCN(C)C)cccc3cc12 , please.
Result block: 1.44 µM (inactive)

Query block: Look up GI50: CC1=NN(C(=O)Nc2ccccc2)C(=O)C2CCC(=O)N12 (stereo unspecified)
Result block: > 100 µM (inactive)

Query block: Please give the measured GI50 for this compound: CC1=NN(c2nc(N)nc(/C(C#N)=C/c3ccc([N+](=O)[O-])o3)n2)C(C)(C)C1
Result block: 5.21 µM (inactive)

Query block: Can you look up the measured GI50 of CCOP(=O)(/C=C\n1ccc(N)nc1=O)OCC for me?
Result block: > 100 µM (inactive)

----------
Test system: NCI-H23
Assay: NCI tumour cell line growth inhibition, 48 h
The source made the active and inactive calls. No stated cut-off is given here; in the data, active = GI50 up to about 1.1 µM and inactive = higher.
I would appreciate it if you answered using one of these outcomes: YES for active, NO for inactive

molecule=COc1cccc2nc3c(C(=O)NCCN(C)C)cccc3cc12 cat=NO
molecule=COc1ccc(NC(=O)CC/C(CC(=O)c2ccccc2Cl)=N\Nc2nnc(C)n2N)cc1 cat=NO
molecule=COC(=O)[C@@H]1CSC(=S)N1C(=O)C[C@H]1CC=CC[C@H]1CC(=O)Sc1ccccc1 cat=NO
molecule=NC(=O)c1nc(-c2ccc(Cl)c(Cl)c2)nc2ccccc12 cat=NO

Query block: So what was the verdict on COc1cc(CNc2ccc(C)cc2)cc(OC)c1OC in this test?
Result block: YES

Query block: Record request — test call for C[C@H](c1ccccc1)N1C(=O)[C@@H](OCc2ccccc2)[C@H]1[C@H](COC(=O)COCc1ccccc1)OCc1ccccc1
Result block: NO

Query block: Each molecule tested received a call. Report the one for O=C(CC1(O)C(=O)Nc2c(Cl)ccc(Cl)c21)c1ccc(F)cc1 (stereo unspecified) .
Result block: NO

Query block: Field: outcome | Entry: CC1=CC(=O)c2ccc3c4ccccc4n(C)c3c2C1=O
Result block: NO

Query block: Test call for this molecule, please: CC1(C)CC2C=C(C=O)C3(C=O)CC3(C)C2C1 (stereo unspecified)
Result block: NO

// data source = ChEMBL document CHEMBL1201862
